tested-system: recombinant human PAI-1 (Homo sapiens)
Construct: purchased Molecular Innovations, Inc
Sequence (P05121 24-402): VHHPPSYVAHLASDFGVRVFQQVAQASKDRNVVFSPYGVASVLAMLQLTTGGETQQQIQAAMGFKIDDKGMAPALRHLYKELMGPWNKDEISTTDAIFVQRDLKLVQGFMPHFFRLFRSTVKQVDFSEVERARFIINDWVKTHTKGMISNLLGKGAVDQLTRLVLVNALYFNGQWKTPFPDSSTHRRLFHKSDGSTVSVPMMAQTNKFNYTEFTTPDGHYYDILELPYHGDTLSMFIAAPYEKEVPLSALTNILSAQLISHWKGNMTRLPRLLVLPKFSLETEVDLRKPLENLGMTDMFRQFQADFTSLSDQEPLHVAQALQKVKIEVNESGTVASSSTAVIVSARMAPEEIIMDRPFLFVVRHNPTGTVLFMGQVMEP
run-description: Test Example 1: human PAI-1 inhibitory activity (tPA fluorogenic substrate, pH 7.5 Tris buffer)
Assay type: biochemical
condition-summary: Compound Concentration 10 μM; Tris buffer
Classification field: Fulfilled = Inhibition Rate of PAI-1 Activity (%) at or over 70%; Not fulfilled = Inhibition Rate of PAI-1 Activity (%) under 70%.

compound | class
CCCCCN(C(=O)C(=O)O)c1ccc(-c2ccc(OC(F)(F)F)cc2)cc1 [Compound 254] | Not fulfilled
O=C(O)C(=O)N(Cc1ccc(F)cc1)c1ccc(-c2ccc(OC(F)(F)F)cc2)cc1 [Compound 155] | Not fulfilled
CC(C)(C)Oc1ccc(N(CCCCc2ccccc2)C(=O)C(=O)O)cc1-c1ccc(OC(F)(F)F)cc1 [Compound 249] | Fulfilled
CCCCc1ccc(-c2ccc(N(Cc3ccc(C(C)(C)C)cc3)C(=O)C(=O)O)cc2)cc1 [Compound 164] | Fulfilled
CC(C)(C)c1ccc(COc2ccc(-c3ccccc3)cc2/C=C/C(=O)O)cc1 [Compound 31] | Not fulfilled
CCCOc1ccc(-c2ccc(OC(F)(F)F)cc2)cc1N(CCCCc1ccccc1)C(=O)C(=O)O [Compound 236] | Fulfilled
CC(C)(C)c1ccc(CN(C(=O)C(=O)O)c2ccc(-c3cccc(OC(F)(F)F)c3)cc2)cc1 [Compound 200] | Fulfilled
CC(C)(C)c1ccc(COc2c(Cl)cc(-c3ccc(OC(F)(F)F)cc3)cc2CCC(=O)O)cc1 [Compound 92] | Not fulfilled
CCCCCOc1ccc(-c2ccc(OC(F)(F)F)cc2)cc1N(Cc1ccccc1)C(=O)C(=O)O [Compound 195] | Fulfilled
